test_system: VEGFR-2 (human, UniProt P35968 20-1356)
Sequence (P35968 20-1356): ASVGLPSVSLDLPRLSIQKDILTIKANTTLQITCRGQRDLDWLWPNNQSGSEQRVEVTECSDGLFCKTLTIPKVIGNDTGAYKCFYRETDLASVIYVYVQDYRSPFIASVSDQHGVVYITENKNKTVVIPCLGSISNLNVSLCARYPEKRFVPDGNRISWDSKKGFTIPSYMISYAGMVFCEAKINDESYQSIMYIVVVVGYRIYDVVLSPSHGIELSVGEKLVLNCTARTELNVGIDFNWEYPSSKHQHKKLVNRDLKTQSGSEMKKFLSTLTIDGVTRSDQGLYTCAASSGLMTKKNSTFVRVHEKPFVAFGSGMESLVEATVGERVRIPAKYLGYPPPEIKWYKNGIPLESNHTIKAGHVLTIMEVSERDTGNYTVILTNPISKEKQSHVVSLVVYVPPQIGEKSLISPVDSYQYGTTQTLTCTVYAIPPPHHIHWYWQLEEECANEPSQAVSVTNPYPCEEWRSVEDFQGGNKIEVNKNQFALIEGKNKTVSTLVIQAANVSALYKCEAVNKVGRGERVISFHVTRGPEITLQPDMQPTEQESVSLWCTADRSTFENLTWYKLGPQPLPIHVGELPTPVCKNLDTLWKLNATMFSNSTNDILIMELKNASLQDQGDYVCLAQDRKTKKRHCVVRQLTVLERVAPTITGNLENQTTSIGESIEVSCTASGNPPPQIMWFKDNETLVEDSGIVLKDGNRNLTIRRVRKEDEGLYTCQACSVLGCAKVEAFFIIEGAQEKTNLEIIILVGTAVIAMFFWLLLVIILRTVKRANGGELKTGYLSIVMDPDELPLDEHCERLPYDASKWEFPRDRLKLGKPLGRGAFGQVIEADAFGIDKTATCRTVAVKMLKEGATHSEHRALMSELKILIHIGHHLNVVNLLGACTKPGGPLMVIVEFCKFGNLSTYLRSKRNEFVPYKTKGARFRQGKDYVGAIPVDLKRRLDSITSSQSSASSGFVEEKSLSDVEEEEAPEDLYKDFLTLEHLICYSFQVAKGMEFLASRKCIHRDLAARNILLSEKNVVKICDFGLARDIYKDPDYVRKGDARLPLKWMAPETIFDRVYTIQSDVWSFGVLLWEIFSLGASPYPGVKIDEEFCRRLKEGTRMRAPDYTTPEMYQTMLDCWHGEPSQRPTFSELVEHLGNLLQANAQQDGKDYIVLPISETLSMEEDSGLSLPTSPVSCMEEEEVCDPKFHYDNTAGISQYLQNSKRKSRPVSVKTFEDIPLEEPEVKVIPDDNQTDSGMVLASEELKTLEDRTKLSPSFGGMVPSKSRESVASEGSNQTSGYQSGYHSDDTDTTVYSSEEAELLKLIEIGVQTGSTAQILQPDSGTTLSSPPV
protocol_description: cell-based or functional assay
Bridges are numbered along the chain shown (N, C = ends). [ ]: non-standard residue; d: D form. hTyr = N[C@@H](CCc1ccc(O)cc1)C(=O)O; Chg = N[C@H](C(=O)O)C1CCCCC1; Tle = CC(C)(C)[C@H](N)C(=O)O
observable: pERK Assay Results (AlphaLISA p-Erk1/2, HUVEC)

// known answers, use as guide
{CH2CO}-WW[hTyr]DVKDDLY[F4G]VDCG-NH2 (thioether N-14; also: homodimer: Lys6 joined to Lys6 of second copy by OCOPEG13OCO (Linker Structure No. 5)) [Peptide complex Dimer Structure No. 40] ... ≥ 50 % activity at 10 nM
{CH2CO}-WW[Tle]DVKDDLYF[hTyr]SCG-NH2 (thioether N-14; also: homodimer: Lys6 joined to Lys6 of second copy by cPEG17c (Linker Structure No. 4)) [Peptide complex Dimer Structure No. 33] ... ≥ 50 % activity at 10 nM
{CH2CO}-WW[Tle]D[Chg]KDDLYF[hTyr]DCG-NH2 (thioether N-14; not fully specified (residue 6); also: homodimer: Lys6 joined to Lys6 of second copy by cPEG17c (Linker Structure No. 4)) [Peptide complex Dimer Structure No. 28] ... ≥ 50 % activity at 10 nM

Here's the next entry for you.
For {CH2CO}-WW[Tle]DVKDDLYF[hTyr]FCG-NH2 (thioether N-14; also: homodimer: Lys6 joined to Lys6 of second copy by cPEG17c (Linker Structure No. 4)) [Peptide complex Dimer Structure No. 34] the binder record lists pERK Assay Results (AlphaLISA p-Erk1/2, HUVEC) as ≥ 50 % activity at 10 nM
